Values were extracted from PubChem BioAssay (NCATS).

- measurement notes: P-glycoprotein substrates identified in KB-8-5-11 adenocarcinoma cell line, qHTS therapeutic library screen (AID 1346987); also: nearly all actives have a fitted effect of over 65% in size
- condition info: KB-8-5-11 (P-gp overexpressing) viability, CellTiter-Glo, 72 h; series mostly up to 44.5 µM
- Method: The ATP-binding cassette transporters P-glycoprotein (P-gp) is known to limit brain penetration of many chemotherapy drugs. […] All cell lines were plated into 1536-well plates at 500 cells/well in 5 uL media. […] CellTiter-Glo reagent (Promega) was dispensed into the wells, incubated for 5 min and luminescence was read on a ViewLux instrument (Perkin-Elmer). […]
Records with an inconclusive call do not appear. Calls of active or inactive are those of the source. Calls follow the shape of the dose curve; as a rule, active = well fitted inhibition curve with a large enough effect; inconclusive = small, poorly fitted or top-dose-only effect; inactive = flat fitted curve, though single readings scatter. Where a SMILES comes first, the peptide text is derived from it. Bridges are numbered along the chain shown (N, C = ends). [ ]: non-standard residue; d: D form. NMeY = CN[CH](Cc1ccc(O)cc1)C(=O)O
Log the outcome using a class from active, inactive

compound | group label
NC(=O)Nc1cc(-c2cccc(F)c2)sc1C(=O)NC1CCCNC1 (configuration not stated) | active

What did this assay record as the result for CN1CCN(Cc2ccc(-c3cnc4[nH]cc(-c5ccc6[nH]ccc6c5)c4c3)cc2)CC1 ?
active

What did this assay record as the result for C[C@@H]1CC[C@]2(C(=O)OC3OC(CO)C(O)C(O)C3O)CC[C@]3(C)C(=CCC4[C@@]5(C)CC[C@H](O)[C@](C)(C(=O)O)C5CC[C@]43C)C2[C@]1(C)O (some centres not stated) ?
inactive

What did this assay record as the result for CCNCc1nc2c(N)nc3ccccc3c2n1CC(C)(C)O ?
inactive

What did this assay record as the result for C[C@@H]1CCC2C(C)(C)[C@H](O)CC[C@]2(C)[C@@]12Cc1c(O)cc3c(c1O2)CN([C@@H](CCC(=O)O)C(=O)O)C3=O (some centres not stated) ?
inactive

What did this assay record as the result for CCC(C)C1NC(=O)C2CCCN2C(=O)C(NC(C)=O)C(C)OC(=O)C(Cc2ccc(OC)cc2)N(C)C(=O)C2CCCN2C(=O)C(C(C)C)NC1=O (configuration not stated) (Ac-TPIVP[NMeY](Me); ester 1-C; configuration not given here) ?
inactive

What did this assay record as the result for CC(C)CN(C[C@@H](O)[C@H](Cc1ccccc1)NC(=O)O[C@@H]1CO[C@H]2OCC[C@H]21)S(=O)(=O)c1ccc(N)cc1 ?
inactive

What did this assay record as the result for COC(=O)c1cc(OC)c(O[C@@H]2O[C@@H](C)[C@H](O)[C@@H](O)[C@H]2O)c(OC)c1 ?
inactive

What did this assay record as the result for Cc1nc([C@](C)(O)CO)sc1-c1cnc(N)c(O[C@H](C)c2cc(F)ccc2-n2nccn2)c1 ?
active

What did this assay record as the result for CC(C)(O)c1ccc2c(c1)C(O)C[C@H]1[C@](C)(C(=O)O)CCC[C@]21C (some centres not stated) ?
inactive

What did this assay record as the result for Cc1ccc(C(=O)N(CCCN)C(c2nc3cc(Cl)ccc3c(=O)n2Cc2ccccc2)C(C)C)cc1 (configuration not stated) ?
active

What did this assay record as the result for COc1cc([C@H]2c3cc(O)c(OC)cc3C[C@@H](CO[C@@H]3O[C@H](CO)[C@@H](O)[C@H](O)[C@H]3O)[C@@H]2CO)ccc1O ?
inactive

What did this assay record as the result for CCc1cnn2c(NCc3ccc[n+]([O-])c3)cc(N3CCCCC3CCO)nc12 (configuration not stated) ?
active

What did this assay record as the result for CC(C)c1ccc2c(c1)C(=O)CC1[C@@](C)(C(=O)O)CCC[C@]21C (some centres not stated) ?
inactive

What did this assay record as the result for Cc1cc(=O)oc2c(C=O)c(O)ccc12 ?
inactive

What did this assay record as the result for O=C(/C=C\c1ccc(O)cc1)N[C@@H](Cc1ccc(O)cc1)C(=O)O ?
inactive

What did this assay record as the result for CC1(C)CC(NC(=O)C(=O)Nc2ccc(Br)cc2)CC(C)(C)N1 ?
inactive
